- assaySystem: human P2X3 receptor (Homo sapiens (Human))
- protocolText: P2X3 receptor inhibition, ATP-evoked Fluo-3 fluorescence (FDSS 3000)
- Type: cell-based
- conditionLabel: C6BU-1 cell transfected with human P2X3 receptor gene
pIC50: −log10 of the molar value.
Classify by measured pIC50: t if it is equal to or exceeds 7, f if it is smaller.

                                   structure                               assaysystem  qualitativelabel
 0  COc1ccc(Cn2c(=O)nc(Nc3ccc(OC(C)C)c(F)c3)n(Cc3ccc(Cl)cc3)c2=O)cc1  human P2X3 receptor (Homo sapiens (Human))                 t
 1  Cc1ccc(Cn2c(Nc3ccc(OC(C)C)cc3)nc(=O)n(C(C)C)c2=O)cc1[N+](=O)[O-]  human P2X3 receptor (Homo sapiens (Human))                 f
 2  CC(C)Oc1ccc(Nc2nc(=O)n(C(C)C)c(=O)n2Cc2ccc(Cl)nc2)cc1Cl  human P2X3 receptor (Homo sapiens (Human))                 f
 3  CCOc1ccc(Nc2nc(=O)n(CCO)c(=O)n2Cc2ccc(Cl)cc2)cc1  human P2X3 receptor (Homo sapiens (Human))                 f
 4  CC(C)Oc1ccc(Nc2nc(=O)n(C(C)C)c(=O)n2Cc2ccc(Cl)cc2)cn1  human P2X3 receptor (Homo sapiens (Human))                 f
 5  CCOc1ccc(Nc2nc(=O)n(C[C@H](C)C(=O)OC)c(=O)n2Cc2ccc(Cl)cc2)cc1Cl  human P2X3 receptor (Homo sapiens (Human))                 t
 6  COC(=O)CNC(=O)Cn1c(=O)[nH]/c(=N\c2ccc(OC(C)C)c(F)c2)n(Cc2ccc(Cl)cc2)c1=O  human P2X3 receptor (Homo sapiens (Human))                 t
 7  Cc1ccc(Cn2c(Nc3cccc(C(F)(F)F)c3)nc(=O)n(C(C)C)c2=O)cc1  human P2X3 receptor (Homo sapiens (Human))                 f
 8  CC(C)Oc1ccc(Nc2nc(=O)n(CC(F)(F)C(=O)O)c(=O)n2Cc2ccc(Cl)cc2)cc1F  human P2X3 receptor (Homo sapiens (Human))                 t
 9  CNC(=O)Cn1c(=O)nc(Nc2ccc(OC(C)C)c(F)c2)n(Cc2ccc(Cl)cc2)c1=O  human P2X3 receptor (Homo sapiens (Human))                 t
10  CC(C)Oc1ccc(/N=c2\[nH]c(=O)n(CC(C)(C)C(=O)O)c(=O)n2CC2CCCCCC2)cc1Cl  human P2X3 receptor (Homo sapiens (Human))                 t
11  CC(C)Oc1ccc(/N=c2\[nH]c(=O)n(CC(C)(C)C(=O)O)c(=O)n2Cc2ccc(Cl)cc2)cc1  human P2X3 receptor (Homo sapiens (Human))                 t
12  CC(C)n1c(=O)nc(Nc2ccc(Oc3ccccc3)cc2)n(Cc2ccc(F)cc2)c1=O  human P2X3 receptor (Homo sapiens (Human))                 f

====

- assaySystem: human P2X3 receptor (Homo sapiens (Human), UniProt P56373)
- Sequence (P56373 whole entry): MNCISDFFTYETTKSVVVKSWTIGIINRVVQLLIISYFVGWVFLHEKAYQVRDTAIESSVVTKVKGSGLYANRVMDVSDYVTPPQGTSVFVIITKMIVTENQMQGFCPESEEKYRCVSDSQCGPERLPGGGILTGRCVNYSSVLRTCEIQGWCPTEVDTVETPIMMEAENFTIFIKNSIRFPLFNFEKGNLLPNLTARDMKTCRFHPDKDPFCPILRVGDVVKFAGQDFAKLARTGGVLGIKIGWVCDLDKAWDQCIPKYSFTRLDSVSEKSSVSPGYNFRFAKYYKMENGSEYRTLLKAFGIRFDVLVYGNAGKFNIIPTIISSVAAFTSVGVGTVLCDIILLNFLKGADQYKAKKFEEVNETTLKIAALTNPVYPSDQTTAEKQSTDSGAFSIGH
- protocolText: P2X3 receptor inhibition, ATP-evoked Fluo-3 fluorescence (FDSS 3000)
- conditionLabel: C6BU-1 cell transfected with human P2X3 receptor gene
molecules and their reported IC50
readoutLabel: IC50 (nM)

>>> print(df.to_string())
                                  structure                               assaysystem  value
0  CC(C)Oc1ccc(Nc2nc(OCCO)nc(=O)n2Cc2ccc(Cl)cc2)cc1F  human P2X3 receptor (Homo sapiens (Human), UniProt P56373)     79
1  Cc1cc2cc(/N=c3\[nH]c(=O)n(CC(C)(C)C(=O)O)c(=O)n3Cc3ccc(Cl)cc3)ccc2o1  human P2X3 receptor (Homo sapiens (Human), UniProt P56373)     27
2  COC(=O)c1ccc(Cn2c(=O)[nH]/c(=N\c3ccc(OC(C)C)c(F)c3)n(Cc3ccc(Cl)cc3)c2=O)cc1  human P2X3 receptor (Homo sapiens (Human), UniProt P56373)     17
3  CCOc1ccc(/N=c2\[nH]c(=O)n(CC(C)(C)C(=O)O)c(=O)n2Cc2ccc(Cl)cc2)cc1C  human P2X3 receptor (Homo sapiens (Human), UniProt P56373)     57

====

compounds and their reported pIC50
- assaySystem: human P2X3 receptor (Homo sapiens (Human), UniProt P56373)
- protocolText: P2X3 receptor inhibition, ATP-evoked Fluo-3 fluorescence (FDSS 3000)
- Assay type: cell-based
- conditionLabel: C6BU-1 cell transfected with human P2X3 receptor gene
pIC50: −log10 of the molar value.
readoutLabel: pIC50

                                   structure  readoutlabel  value
 0  CC(C)Oc1ccc(Nc2nc(=O)n(CCO)c(=O)n2Cc2ccc([N+](=O)[O-])cc2)cc1F         pIC50   6.60
 1  CCOc1ccc(/N=c2\[nH]c(=O)n(CC(C)(C)C(=O)OC)c(=O)n2Cc2ccc(Cl)cc2)cc1Cl         pIC50   7.96
 2  COC(=O)C(C)(C)Cn1c(=O)[nH]/c(=N\c2ccc(OC(C)C)c(Cl)c2)n(CC2CCCC2)c1=O         pIC50   7.48
 3  CCOC(=O)CCCn1c(=O)[nH]/c(=N\c2ccc3oc(C)cc3c2)n(Cc2ccc(Cl)cc2)c1=O         pIC50   7.82
 4  CCOc1ccc(Nc2nc(=O)n(C[C@H](C)C(=O)OC)c(=O)n2Cc2ccc(Cl)cc2)cc1         pIC50   7.47
 5  O=c1nc(Nc2cccc(OC(F)(F)F)c2)n(Cc2ccc(Cl)cc2)c(=O)n1CCO         pIC50   6.45
 6  COC(=O)c1ccc(Nc2nc(=O)n(C(C)C)c(=O)n2Cc2ccc(F)cc2)cc1         pIC50   6.56
 7  CCOc1ccc(Nc2nc(=O)n(CC(CO)CO)c(=O)n2Cc2ccc(Cl)cc2)cc1         pIC50   7.20
 8  CC(C)Oc1ccc(Nc2nc(=O)n(CCCO)c(=O)n2Cc2ccc(Cl)cc2)cc1Cl         pIC50   8.15
 9  COC(=O)C(C)(C)Cn1c(=O)[nH]/c(=N\c2ccc3c(ccn3CC(C)C)c2)n(Cc2ccc(Cl)cc2)c1=O         pIC50   6.55
10  CC(C)Oc1ccc(Nc2nc(=O)n(C(CO)CO)c(=O)n2Cc2ccc(Cl)cc2)cc1F         pIC50   6.56
11  CC(C)Oc1ccc(/N=c2\[nH]c(=O)n(CC(C)(C)C(=O)O)c(=O)n2Cc2ccc(Cl)cc2)cc1Cl         pIC50   8.15
12  CC(C)Oc1ccc(/N=c2\[nH]c(=O)n(CC(C)(C)C(=O)O)c(=O)n2CC2CCCC2)cc1Cl         pIC50   6.86
13  CC(C)Oc1ccc(Nc2nc(=O)n(C(C)C)c(=O)n2Cc2ccc(F)cc2)cc1C(F)(F)F         pIC50   6.25
14  CC(C)Oc1ccc(/N=c2\[nH]c(=O)n([C@@H](C)CC(=O)O)c(=O)n2Cc2ccc(Cl)cc2)cc1Cl         pIC50   7.62
15  COC(=O)[C@@H](C)Cn1c(=O)[nH]/c(=N\c2ccc(OC(C)C)c(C)c2)n(CC2CCCCC2)c1=O         pIC50   7.89

====

- assaySystem: human P2X3 receptor (Homo sapiens (Human))
- protocolText: P2X3 receptor inhibition, ATP-evoked Fluo-3 fluorescence (FDSS 3000)
- conditionLabel: C6BU-1 cell transfected with human P2X3 receptor gene
pIC50: −log10 of the molar value.
readoutLabel: pIC50

>>> df
                                    molecule  readoutlabel  value
 0  CC(C)Oc1ccc(Nc2nc(=O)n(CCCO)c(=O)n2Cc2ccc(Cl)cc2)cc1 [I-359]         pIC50   7.40
 1  CCn1ccc2cc(/N=c3\[nH]c(=O)n(CC(C)(C)C(=O)O)c(=O)n3Cc3ccc(Cl)cc3)ccc21 [I-493]         pIC50   6.02
 2  Cc1ccc(Cn2c(=O)n(CC(C)(C)C(=O)O)c(=O)[nH]/c2=N\c2ccc(OC(C)C)c(F)c2)cc1 [I-405]         pIC50   7.49
 3  Cc1cc2cc(/N=c3\[nH]c(=O)n(C[C@@H](C)C(=O)O)c(=O)n3Cc3ccc(Cl)cc3)ccc2o1 [I-564]         pIC50   7.32
 4  COC(=O)[C@@H](C)Cn1c(=O)[nH]/c(=N\c2ccc(OC(C)C)c(F)c2)n(Cc2ccc(C)cc2)c1=O [I-515]         pIC50   8.22
 5  CC(C)Oc1ccc(Nc2nc(=O)n(CCCN)c(=O)n2Cc2ccc(Cl)cc2)cc1F [I-317]         pIC50   6.86
 6  CC(C)Oc1ccc(/N=c2\[nH]c(OCC(C)(C)C(=O)O)nc(=O)n2Cc2ccc(Cl)cc2)cc1Cl [II-010]         pIC50   6.46
 7  CC(C)Oc1ccc(/N=c2\[nH]c(=O)n(CCC(C)(C)C(=O)O)c(=O)n2Cc2ccc(Cl)cc2)cc1Cl [I-421]         pIC50   7.72
 8  CC(C)(Cn1c(=O)[nH]/c(=N\c2ccc(Cl)c(Cl)c2)n(Cc2ccc(Cl)cc2)c1=O)C(=O)O [I-477]         pIC50   7.25
 9  CSc1cccc(/N=c2\[nH]c(=O)n(CC(C)(C)C(=O)O)c(=O)n2Cc2ccc(Cl)cc2)c1 [I-510]         pIC50   7.01
10  Cc1ccc(Cn2c(Nc3ccc4[nH]ccc4c3)nc(=O)n(C(C)C)c2=O)cc1 [I-123]         pIC50   6.09
11  CC(C)Oc1ccc(/N=c2\[nH]c(N3CCCC3=O)nc(=O)n2Cc2ccc(Cl)cc2)cc1Cl [II-012]         pIC50   6.25
12  Cc1ccc(Cn2c(=O)n(CC(=O)NC(C)(C)C(=O)O)c(=O)[nH]/c2=N\c2ccc(OC(C)C)c(F)c2)cc1 [I-415]         pIC50   6.50
13  CC(C)Oc1ccc(Nc2nc(=O)n(CCNC(=O)NCCO)c(=O)n2Cc2ccc(Cl)cc2)cc1F [I-390]         pIC50   7.17
14  O=c1nc(Nc2ccc(OC(F)F)cc2)n(Cc2ccc(Cl)cc2)c(=O)n1CCCO [I-360]         pIC50   6.83
15  CCCn1c(=O)nc(Nc2ccc(OC(C)C)c(F)c2)n(Cc2ccccc2)c1=O [I-349]         pIC50   6.95
16  CC(C)Oc1ccc(/N=c2\[nH]c(=O)n(CC3(C(=O)O)CC3)c(=O)n2Cc2ccc(Cl)cc2)cc1F [I-424]         pIC50   7.31
17  CC(C)(Cn1c(=O)[nH]/c(=N\c2cccc(OC(F)F)c2)n(Cc2ccc(Cl)cc2)c1=O)C(=O)O [I-448]         pIC50   6.41
18  O=c1nc(Nc2cccc(C(F)(F)F)c2)n(Cc2ccc(Cl)cc2)c(=O)n1CCCO [I-357]         pIC50   7.33
19  CCOc1ccc(/N=c2\[nH]c(=O)n(C[C@@H](C)C(=O)OC)c(=O)n2Cc2ccc(Cl)cc2)cc1C [I-481]         pIC50   7.92
20  CCCOc1ccc(Nc2nc(=O)n(CCO)c(=O)n2Cc2ccc(Cl)cc2)cc1F [I-321]         pIC50   7.48
21  COC(=O)C(C)(C)Cn1c(=O)[nH]/c(=N\c2ccc(OC(C)C)nc2)n(Cc2ccc(Cl)cc2)c1=O [I-473]         pIC50   6.23
22  CC(C)Oc1ccc(Nc2nc(=O)n(CCOC3CCCCO3)c(=O)n2Cc2ccc(Cl)cc2)cc1Cl (stereo not drawn) [I-350]         pIC50   8.00
23  COC(=O)[C@@H](C)Cn1c(=O)[nH]/c(=N\c2ccc3oc(C)cc3c2)n(Cc2ccc(Cl)cc2)c1=O [I-534]         pIC50   7.74
24  CC(C)Oc1ccc(Nc2nc(=O)n(C(F)F)c(=O)n2Cc2ccc(Cl)cc2)cc1F [I-310]         pIC50   6.41
25  COc1cc(Cl)ccc1Cn1c(Nc2ccc(OC(C)C)c(F)c2)nc(=O)n(C(C)C)c1=O [I-270]         pIC50   6.57
26  C=CCn1c(=O)nc(Nc2ccc(OC(C)C)c(F)c2)n(Cc2ccc(Cl)cc2)c1=O [I-346]         pIC50   7.80
27  CC(C)Oc1ccc(/N=c2\[nH]c(=O)n(Cc3ccccc3C(=O)O)c(=O)n2Cc2ccc(Cl)cc2)cc1F [I-459]         pIC50   7.41
28  Cc1ccc(/N=c2\[nH]c(=O)n(CC(C)(C)C(=O)O)c(=O)n2Cc2ccc(Cl)cc2)cc1C [I-464]         pIC50   6.25
29  CC(C)n1c(=O)nc(Nc2ccc(C#N)cc2)n(Cc2ccc(Cl)cc2)c1=O [I-372]         pIC50   6.02
